ASSAY PROTOCOL: Viability qHTS for spleen associated tyrosine kinase inhibitor (SYKi) drug resistant MV4-11 cells (AID 1963824); further: nearly all actives have a fitted effect of over 35% in size; further: potency means the concentration at half of the fitted maximal effect
CONDITIONS: SYKi-resistant MV4-11 viability, CellTiter-Glo, 72 h; series mostly up to 45 µM
Records with an inconclusive call do not appear. Activity calls are given as the source filed them. The call rests on the fitted dose curve; in most records, active means well fitted cell-killing curve with a large enough effect; inconclusive means small, poorly fitted or top-dose-only effect, or effect the other way; inactive means no such curve, though single readings can be large or run the other way.
EXPERIMENTAL ENDPOINT: Potency

Example entries begin here.
MOLECULE	VALUE
CCCCOC(=O)NC(=O)C1c2ccccc2Oc2ccccc21	inactive
COC(=O)C1C(c2ccc(O)cc2)C(C(=O)OC)C1c1ccc(O)cc1 (stereo not drawn)	10.1 µM (active)
O=C(O)c1ccccc1O	inactive
C=C1CCC2C(C)(C(=O)OC)CCCC2(C)C1CCC(C)CC(=O)O (stereo not drawn)	inactive
OC[C@H](Cc1ccccc1)Nc1nc(Oc2ccc3c(c2)CCC3)nc2c1ncn2Cc1ccc(-c2ccccc2)cc1	10.5 µM (active)
CN(C(=O)C(Cl)Cl)c1ccc(OC(=O)c2ccco2)cc1	inactive
NC(=O)NC1NC(=O)NC1=O (stereo not drawn)	inactive
CC/C=C(\C(=O)N[C@@H]1C(=O)N2C(C(=O)OCOC(=O)C(C)(C)C)=C(COC(N)=O)CS[C@H]12)c1csc(N)n1	inactive
C[C@H](CCC(=O)O)[C@H]1CC[C@H]2[C@@H]3[C@@H](O)C[C@@H]4C[C@H](O)CC[C@]4(C)[C@H]3CC[C@]12C	inactive
C=C1C[C@]23C[C@H]1CC[C@H]2[C@]1(C)CCC[C@@]2(CO)C(=O)O[C@H]([C@H]21)[C@@H]3O	inactive

Recorded Potency for C/C=C/C=C/C=C/C(=O)O[C@@H]1[C@@H](OC)C2=C(C(=O)N(C(CCC(=O)O)C(=O)O)C2)[C@@]2(C)CCCC(C)(C)[C@H]12 (stereo partly drawn) , please?
inactive

How about this molecule: CN1Cc2cc(C(=O)N3CCC(C4CCNCC4)CC3)ccc2N[C@@H](CC(=O)O)C1=O
inactive

How about this molecule: Cc1ccnc(NS(=O)(=O)c2ccc(NC(=O)Nc3ccc(S(=O)(=O)Nc4nccc(C)n4)cc3)cc2)n1
inactive

How about this molecule: Cc1nc2ccc(C(=O)N3CCC4(CC3)CC(=O)c3c(cnn3C(C)C)C4)cc2[nH]1
20.9 µM (active)

How about this molecule: O=C(Nc1ccccc1)c1ccc(Nc2nnc(-c3ccc(O)cc3)c3ccccc23)cc1
23.1 µM (active)

How about this molecule: CC(C)(O)C1CC=C(C(=O)OC[C@H]2O[C@@H](OC(=O)C3=CCC(C(C)(C)O)CC3)[C@H](O)[C@@H](O)[C@@H]2O)CC1 (stereo partly drawn)
inactive

How about this molecule: C/C=C1/[C@H](O[C@@H]2O[C@H](CO)[C@@H](O)[C@H](O)[C@H]2O)OC=C(C(=O)OC)[C@H]1CC(=O)O[C@@H]1O[C@H](CO)[C@@H](O)[C@H](O)[C@H]1O
inactive

How about this molecule: O=C(O[C@H]1[C@H](Oc2ccc(O)cc2CO)O[C@H](CO)[C@@H](O)[C@@H]1O)c1ccccc1
inactive
